assay-endpoint: pIC50
Formally, pIC50 is defined as -log10 of the concentration c, with c in mol/L.

Fill in: human 5-HT2A receptor (Homo sapiens) pIC50 for Cn1nccc1-c1cc(NC(=O)NCc2ccc(Cl)cc2)ccc1OCCN1CCCCC1 = 7.99
